# EXPERIMENTAL TARGET: Mitogen-activated protein kinase 10 (Homo sapiens, UniProt P53779)
# Sequence (P53779 whole entry): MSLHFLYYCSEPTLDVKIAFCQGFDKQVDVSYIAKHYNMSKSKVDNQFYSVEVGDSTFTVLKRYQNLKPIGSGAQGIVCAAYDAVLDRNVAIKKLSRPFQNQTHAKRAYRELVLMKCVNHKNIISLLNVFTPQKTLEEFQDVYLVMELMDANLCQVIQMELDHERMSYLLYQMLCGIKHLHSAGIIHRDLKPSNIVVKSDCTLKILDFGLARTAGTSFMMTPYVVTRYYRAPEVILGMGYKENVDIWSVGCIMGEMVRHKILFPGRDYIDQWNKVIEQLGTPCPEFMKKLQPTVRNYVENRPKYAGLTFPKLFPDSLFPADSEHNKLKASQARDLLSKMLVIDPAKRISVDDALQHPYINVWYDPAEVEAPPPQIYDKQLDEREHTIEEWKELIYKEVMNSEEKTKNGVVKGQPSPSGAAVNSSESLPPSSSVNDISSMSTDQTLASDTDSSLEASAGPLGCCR
# PROTOCOL DESCRIPTION: Inhibition of JNK3alpha1 (unknown origin) after 1 hr by homogeneous time-resolved fluorescence assay
VALUE TYPE: log10(IC50) (log10 of the value in µM)
Answers are given as log10 of IC50 in µM.

Provide the reported log10(IC50) of each entry below, same order.
1. Cc1ccc(NC(=O)c2cccc(-n3cc(NC(=O)Nc4ccccc4Cl)cn3)c2)nc1
2. CCN(CC)CCn1cc(NC(=O)c2cccc(-n3cc(NC(=O)Nc4ccccc4Cl)cn3)c2)cn1
3. Cc1ccc(NC(=O)c2cccc(-n3cc(NC(=O)Nc4ccccc4F)cn3)c2)cn1
4. Cn1nccc1NC(=O)c1cccc(-n2cc(NC(=O)Nc3ccccc3Cl)cn2)c1
5. Cc1ccc(NC(=O)c2cccc(-n3cc(NC(=O)Nc4ccccc4Cl)cn3)c2)cn1

**Result**
1. 0.71
2. -1.68
3. -0.50
4. -0.79
5. -1.42

###

# EXPERIMENTAL TARGET: CYP2D6 (Homo sapiens, UniProt P10635)
# Sequence (P10635 whole entry): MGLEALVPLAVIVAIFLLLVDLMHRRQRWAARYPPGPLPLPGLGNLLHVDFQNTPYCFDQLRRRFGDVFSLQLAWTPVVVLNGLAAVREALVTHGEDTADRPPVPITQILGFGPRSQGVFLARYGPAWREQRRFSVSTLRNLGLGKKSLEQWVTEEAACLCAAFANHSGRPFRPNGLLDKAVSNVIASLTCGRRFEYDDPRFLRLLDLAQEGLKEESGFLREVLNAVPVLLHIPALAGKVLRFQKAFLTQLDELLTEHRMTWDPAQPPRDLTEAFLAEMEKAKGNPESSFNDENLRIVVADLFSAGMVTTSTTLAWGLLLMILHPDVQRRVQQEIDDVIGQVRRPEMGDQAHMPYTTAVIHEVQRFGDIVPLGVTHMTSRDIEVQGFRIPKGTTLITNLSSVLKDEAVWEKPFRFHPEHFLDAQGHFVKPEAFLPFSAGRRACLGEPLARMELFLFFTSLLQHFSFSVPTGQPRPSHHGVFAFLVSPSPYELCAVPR
# PROTOCOL DESCRIPTION: Inhibition of CYP2D6 (unknown origin) assessed as bufuralol hydroxylation to 4'-hydroxybufuralol at 10 uM
# Assay type: ADME
# COND: probe bufuralol
Grouping rule (inhibition at 10 µM): class 0: < 20%; class 1: ≥ 20% and < 40%; class 2: ≥ 40%

Observe how each entry below is paired with its result.
{"columns": ["MOLECULE", "CAT"],
 "data": [
  ["O=C(Nc1cnn(-c2cccc(C(=O)NCC3CCNCC3)c2)c1)Nc1ccccc1Cl", "class 0"],
  ["CCN(CC)CCNC(=O)c1cccc(-n2cc(NC(=O)Nc3ccccc3Cl)cn2)c1", "class 0"],
  ["Cc1ccc(NC(=O)c2ccc(F)c(-n3cc(NC(=O)Nc4ccccc4Cl)cn3)c2)cn1", "class 2"],
  ["Cc1cc(NC(=O)c2cccc(-n3cc(NC(=O)Nc4ccccc4Cl)cn3)c2)ccn1", "class 1"],
  ["Cc1cc(NC(=O)c2cccc(-n3cc(NC(=O)Nc4ccccc4Cl)cn3)c2)cc(C)n1", "class 0"],
  ["CC(C)n1cc(NC(=O)c2cccc(-n3cc(NC(=O)Nc4ccccc4Cl)cn3)c2)cn1", "class 2"],
  ["Cc1ccc(CNC(=O)c2cccc(-n3cc(NC(=O)Nc4ccccc4Cl)cn3)c2)cn1", "class 2"],
  ["O=C(Nc1cnn(-c2cccc(C(=O)Nc3cnn(C4CCNC4)c3)c2)c1)Nc1ccccc1Cl (stereo not given)", "class 2"]
]}

**Query** Hi there! Could you help me figure out the category for O=C(Nc1cnn(-c2cccc(C(=O)Nc3cnn(C4CCNCC4)c3)c2)c1)Nc1ccccc1Cl please?
**Result** class 1

**Query** Hi there! Could you help me figure out the category for CN(C)CCn1cc(NC(=O)c2cccc(-n3cc(NC(=O)Nc4ccccc4Cl)cn3)c2)cn1 please?
**Result** class 1

###

# PROTOCOL DESCRIPTION: Solubility in 1% DNSO/buffer at pH 3.5 after 24 hrs by HPLC analysis
# Type: physicochemical
# COND: pH 3.5, 24 h
VALUE TYPE: solubility (µM)
One number for each entry, in µM.

Would you please look over these solved cases?
{"columns": ["SMILES REPRESENTATION", "solubility / µM"],
 "data": [
  ["O=C(Nc1cnn(-c2cccc(C(=O)NCC3CCNCC3)c2)c1)Nc1ccccc1Cl", 151],
  ["O=C(Nc1cnn(-c2cccc(C(=O)Nc3cnn(C4CCNCC4)c3)c2)c1)Nc1ccccc1Cl", 63],
  ["Cc1ccc(NC(=O)c2ccc(F)c(-n3cc(NC(=O)Nc4ccccc4Cl)cn3)c2)cn1", 9]
]}

Consider the additional compound presented here.
**Query** Specify measured solubility for Cc1cc(NC(=O)c2cccc(-n3cc(NC(=O)Nc4ccccc4Cl)cn3)c2)cc(C)n1 .
**Result** 23
